Exercise: state measured NIH3T3_AUC for each of the compounds provided.
# Test system: NIH-3T3 cells
# test: qHTS cell viability (CellTiter-Glo, 72 h; primary screen), control cell line
# Assay type: cell-based, mouse
# condition-context: NPC library; qHTS dose-response AUC, NIH3T3 control
Where a name gives a salt, the structure may show the parent alone.

>>> print(df.to_string())
                                   compound  observed
0  CN(CC1(C)CCCO1)S(=O)(=O)c1ccc(Cl)c(S(N)(=O)=O)c1 (stereo not drawn) [Mefruside]   485.692

I have 2 compounds here; please give me NIH3T3_AUC for each one.
1. CCN(CC)CCNC(=O)c1ccc(NC(C)=O)cc1 [Acecainide hydrochloride]
2. CNS(=O)(=O)CCc1ccc2[nH]cc(C3CCN(C)CC3)c2c1 [Naratriptan hydrochloride]

1. 480.581
2. 449.036
